molecular target: human ether-à-go-go-related gene (hERG) potassium channel (human); test: primary screen, population patch clamp on CHO cells stably expressing hERG; higher = less effect of the substance;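 note: peak tail current of the secondary pulse compared with the same well before compound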
About 14,000 (4.5%) of roughly 310,000 compounds showed an effect of 50% or more. The effect is printed as a negative number. This is one part of a sample in which strong results are shown more often than they occur.
Quick list: hERG current change (%, negative = inhibition) at 10uM per entry.
Please reply with the bare figure in % and do not write the unit itself.

// solved cases for hERG current change (%, negative = inhibition) at 10uM follow
Cc1csc(NC(=O)CSc2nnc(-c3ccoc3C)o2)n1 :: 4.99
CCOC(=O)C1(CCc2ccccc2)CCN(Cc2ccc(O)cc2)CC1 :: -83.4
COc1ccc(S(=O)(=O)N(C)c2ccc(C(=O)NCc3ccco3)cc2)cc1OC :: -9.43

Incoming: Please report the recorded hERG current change (%, negative = inhibition) at 10uM for C[N+]1(C)CCC(OC(=O)C(c2ccccc2)c2ccccc2)CC1.[I-] .
Outgoing: 1.2

Incoming: Given the compound COc1cccc(CNS(=O)(=O)c2ccc(S(=O)(=O)N3CCCC3)cc2)c1 , what is its reported hERG current change (%, negative = inhibition) at 10uM?
Outgoing: 7.51

Incoming: What value of measured hERG current change (%, negative = inhibition) at 10uM is listed for CCOc1ccc(-n2c(SCC(=O)NC)nnc2-c2ccco2)cc1 ?
Outgoing: -27.5

Incoming: Could you share which hERG current change (%, negative = inhibition) at 10uM value was measured for CCOC(=O)CN(C(=O)CSc1nnc(C)n1-c1ccccc1)c1ccccc1 ?
Outgoing: 6.79

Incoming: Recorded hERG current change (%, negative = inhibition) at 10uM for C#CCNC(=O)C1=C[C@H](c2coc3ccccc3c2=O)[C@@H](CCCO)[C@H](OCC)O1 , please?
Outgoing: -23.3

Incoming: Field request: hERG current change (%, negative = inhibition) at 10uM | item: CCOC(=O)C1(CCc2ccccc2)CCN(CC(O)CO)CC1 (stereo not shown)
Outgoing: -40.3

Incoming: Give its hERG current change (%, negative = inhibition) at 10uM value. Item: CCOC(=O)CSc1nnc(Cc2ccccc2)n1-c1ccc(C)cc1
Outgoing: -37.4

###

biological target: human ether-à-go-go-related gene (hERG) potassium channel (human, UniProt Q12809); assay: primary screen, population patch clamp on CHO cells stably expressing hERG; higher = less effect of the substance;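 note: peak tail current of the secondary pulse compared with the same well before compound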
Sequence (Q12809 whole entry, looked up): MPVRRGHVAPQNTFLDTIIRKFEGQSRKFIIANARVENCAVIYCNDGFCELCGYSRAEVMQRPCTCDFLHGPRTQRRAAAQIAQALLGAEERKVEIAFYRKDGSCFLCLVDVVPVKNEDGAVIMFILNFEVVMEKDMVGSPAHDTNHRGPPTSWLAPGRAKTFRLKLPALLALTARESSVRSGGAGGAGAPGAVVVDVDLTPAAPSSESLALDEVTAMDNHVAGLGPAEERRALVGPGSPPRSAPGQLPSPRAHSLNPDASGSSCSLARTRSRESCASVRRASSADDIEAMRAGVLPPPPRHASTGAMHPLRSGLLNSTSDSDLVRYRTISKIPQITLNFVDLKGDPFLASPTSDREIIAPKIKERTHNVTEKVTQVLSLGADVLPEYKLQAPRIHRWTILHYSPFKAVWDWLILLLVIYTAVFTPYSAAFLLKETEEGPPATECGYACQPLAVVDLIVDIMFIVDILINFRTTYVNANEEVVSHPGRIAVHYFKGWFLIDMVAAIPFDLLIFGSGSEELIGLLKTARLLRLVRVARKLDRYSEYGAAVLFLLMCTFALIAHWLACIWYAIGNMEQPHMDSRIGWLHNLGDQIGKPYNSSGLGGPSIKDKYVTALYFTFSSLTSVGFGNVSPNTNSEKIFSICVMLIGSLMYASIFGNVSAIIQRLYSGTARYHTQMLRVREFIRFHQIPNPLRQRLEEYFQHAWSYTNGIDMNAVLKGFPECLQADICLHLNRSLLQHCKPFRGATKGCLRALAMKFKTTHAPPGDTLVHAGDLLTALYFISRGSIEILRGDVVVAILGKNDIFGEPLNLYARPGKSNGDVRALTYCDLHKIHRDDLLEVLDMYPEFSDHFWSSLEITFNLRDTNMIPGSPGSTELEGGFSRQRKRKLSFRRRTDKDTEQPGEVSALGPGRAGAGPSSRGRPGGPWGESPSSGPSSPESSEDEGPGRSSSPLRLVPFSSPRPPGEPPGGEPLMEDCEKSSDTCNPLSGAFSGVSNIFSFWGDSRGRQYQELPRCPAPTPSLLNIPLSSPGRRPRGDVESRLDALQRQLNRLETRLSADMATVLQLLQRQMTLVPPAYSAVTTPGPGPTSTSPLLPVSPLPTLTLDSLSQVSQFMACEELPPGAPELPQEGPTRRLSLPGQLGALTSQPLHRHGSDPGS
The campaign covered roughly 310,000 compounds. About 14,000 (4.5%) showed an effect of 50% or more. Effects have a minus sign here. What follows is part of a selection rich in strong results, with near analogues and random picks from the rest.
recordedMetric: hERG current change (%, negative = inhibition) at 10uM (%)
Report the value in % with no unit label.

Here is how some compounds turned out for hERG current change (%, negative = inhibition) at 10uM.
CN(C)CCNC(=O)c1sc2nc(-c3ccccc3)cc(C(F)(F)F)c2c1N :: -57.8
OCC1CCCN1C(=S)Nc1ccccc1 (centres unmarked) :: 3.84
O=C(CNC(=O)c1ccco1)Nc1cccc(Cl)c1 :: -10.8
Cc1ccc(S(=O)(=O)N(CC(=O)NCc2ccncc2)Cc2ccc(F)cc2)cc1 :: -79.2

Incoming: Item under review: N#Cc1ccccc1NC(=O)COC(=O)CCc1ccccc1 . Reported hERG current change (%, negative = inhibition) at 10uM?
Outgoing: -14.9
